# study target: Aldo-keto reductase family 1 member C3 (Homo sapiens)
# Sequence (P42330 whole entry): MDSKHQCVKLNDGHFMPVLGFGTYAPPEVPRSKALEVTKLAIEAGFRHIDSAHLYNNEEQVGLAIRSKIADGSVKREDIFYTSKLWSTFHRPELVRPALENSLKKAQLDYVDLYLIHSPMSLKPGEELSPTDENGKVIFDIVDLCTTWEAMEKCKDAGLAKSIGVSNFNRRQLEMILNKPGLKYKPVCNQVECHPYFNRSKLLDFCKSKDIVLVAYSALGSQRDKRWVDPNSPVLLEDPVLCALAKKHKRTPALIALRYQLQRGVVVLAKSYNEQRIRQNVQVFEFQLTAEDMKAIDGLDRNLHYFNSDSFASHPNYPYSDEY
# protocol: Inhibition of recombinant AKR1C3 (unknown origin) using S-tetralol as substrate
Task for the reader: assign each of the following molecules its reported pIC50.
Numbers only, as −log10 of the molar value.

Example entries begin here.
{"columns": ["compound structure string", "pIC50"],
 "data": [
  ["O=C(O)c1cccc(Nc2cccc(S(F)(F)(F)(F)F)c2)c1", 7.07],
  ["O=C(O)c1ccccc1Nc1cccc(S(F)(F)(F)(F)F)c1", 7.24]
]}

Quick request: pIC50 for each listed item, please.
1. O=C(O)c1ccccc1Nc1ccc(S(F)(F)(F)(F)F)cc1
2. O=C(O)c1cccc(Nc2ccc(S(F)(F)(F)(F)F)cc2)c1

[7.44, 7.46]
